The origin of these recorded values is patent US11254686B1.

# studySystem: adenosine A2A receptor (Homo sapiens (Human), UniProt P29274)
# Sequence (P29274 whole entry): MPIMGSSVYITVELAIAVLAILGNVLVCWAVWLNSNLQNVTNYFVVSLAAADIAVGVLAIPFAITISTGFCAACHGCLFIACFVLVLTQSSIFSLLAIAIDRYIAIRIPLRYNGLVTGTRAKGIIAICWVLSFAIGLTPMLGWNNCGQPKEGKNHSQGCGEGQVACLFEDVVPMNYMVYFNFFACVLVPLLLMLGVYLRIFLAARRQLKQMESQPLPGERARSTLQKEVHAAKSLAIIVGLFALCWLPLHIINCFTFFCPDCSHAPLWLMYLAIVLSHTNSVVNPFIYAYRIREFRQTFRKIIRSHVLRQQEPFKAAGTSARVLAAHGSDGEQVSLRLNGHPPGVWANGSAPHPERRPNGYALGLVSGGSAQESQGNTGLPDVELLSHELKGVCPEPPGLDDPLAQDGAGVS
# procedureText: Adenosine receptor activity assay (Table 1), A2A activity
# Type: biochemical
# runConditions: read-out: Ave A2A cAMP IC50
The reader will find reported IC50 values listed item by item below.

1. C[C@H](Nc1nc(C(=O)N2CC[C@H](F)C2)c2sccc2n1)c1cncc(F)c1 ... 100 to 500 nM
2. O=C(NCc1ccccn1)c1nc(NCc2ccccn2)nc2ccsc12 ... 100 to 500 nM
3. Cc1cc2nc(N[C@@H](C)c3cncc(F)c3)nc(C(=O)N3CC(CO)C3)c2s1 ... 100 to 500 nM
4. Cc1cc2nc(N[C@@H](C)c3cncc(F)c3)nc(C(=O)NCC(C)(C)O)c2s1 ... 50 to 100 nM
5. C[C@H](Nc1nc(C(=O)N2CC(C)(O)C2)c2sccc2n1)c1ccccn1 ... 100 to 500 nM

The compound listed as C[C@H](Nc1nc(C(=O)NC2CNC2)c2sccc2n1)c1cncc(F)c1 has a reported IC50 of > 500 nM

// field: IC50; key: COCCNC(=O)c1nc(NCc2cncc(F)c2)nc2ccsc12 ; value = 100 to 500 nM

Looking up C[C@H](Nc1nc(C(=O)N2CCN(C(=O)OC(C)(C)C)C2)c2sccc2n1)c1cncc(F)c1 , I see its IC50 listed as > 500 nM
